- Test system: KM12
- assay_remarks: Growth inhibition of human KM12 cells by sulforhodamine B assay
- Assay type: functional
- protocol_conditions: read-out: pLC50 (converted)
measured_quantity: LC50 (50% net cell kill)

{"columns": ["chemical_structure", "target_of_assay", "endpoint_value"],
 "data": [
  ["CC(C)=CC(=O)O[C@@H]1CC(C)(C)C[C@H]2C3=CC[C@@H]4[C@@]5(C)CCC(=O)C(C)(C)[C@@H]5CC[C@@]4(C)[C@]3(C)CC[C@@]12C(=O)O", "KM12", "58.9 µM"],
  ["CC(C)=CC(=O)O[C@@H]1CC(C)(C)C[C@H]2C3=CC[C@@H]4[C@@]5(C)CC[C@H](O)C(C)(C)[C@@H]5CC[C@@]4(C)[C@]3(C)CC[C@@]12C(=O)O", "KM12", "> 100 µM"],
  ["C/C=C(/C)C(=O)O[C@@H]1CC(C)(C)C[C@H]2C3=CC[C@@H]4[C@@]5(C)CCC(=O)C(C)(C)[C@@H]5CC[C@@]4(C)[C@]3(C)CC[C@@]12C(=O)O", "KM12", "> 100 µM"],
  ["CC1(C)C[C@@H](O)[C@]2(C(=O)O)CC[C@]3(C)C(=CC[C@@H]4[C@@]5(C)C/C(=C\\C=C\\c6ccccc6)C(=O)C(C)(C)[C@@H]5CC[C@]43C)[C@@H]2C1", "KM12", "46.8 µM"]
]}
